- Tested on: COLO 205 colon
- Assay Summary: NCI tumour cell line growth inhibition, 48 h; in the data active = GI50 below about 0.43 µM; inactive = the rest
Output constraint: value belongs to Yes for active, No for inactive

Incoming: What did the test return for Cc1nc2cc(Nc3nc(Nc4ccc(F)cc4)nc(N4CCCC4)n3)ccc2n1Cc1ccccc1 ?
Outgoing: No

Incoming: I'd appreciate the recorded outcome for Cn1cc(-c2ccc3nnc(C(F)(F)c4ccc5ncccc5c4)n3n2)cn1 from this test.
Outgoing: No

Incoming: What did the test return for CN1CCN(Cn2nc(-c3cc(F)c(Cl)cc3Cl)oc2=S)CC1 ?
Outgoing: No

Incoming: Recorded test call requested for COc1ccc2c(c1)C(=O)c1c-2c(OCCN2CCCCC2)nc2ccc(OC)cc12
Outgoing: No

Incoming: State the result this test recorded for NC(CS)C(=O)NCCNc1ccc(NCCNC(=O)C(N)CS)c2c1C(=O)c1c(O)ccc(O)c1C2=O (stereo not given) .
Outgoing: Yes

----------
- Tested on: RXF 393 renal
- Assay Summary: NCI tumour cell line growth inhibition, 48 h
Measured Metric: TGI (µM)
Output spec: scalar in µM, unitless text.

Incoming: Under RXF 393 renal: TGI value of CNC(=O)c1cc(Oc2cccc3nc(NC(=O)Nc4ccc(F)cc4F)ccc23)ccn1 ?
Outgoing: 2.99

Incoming: # returns recorded TGI (system: RXF 393 renal) for O=C1c2c(F)c(F)c(F)c(F)c2SC2=Nc3cccc4cccc(c34)N12
Outgoing: 11.1

Incoming: Form: Entry = Brc1ccc(C[N+]23CN4CN(CN(C4)C2)C3)cc1 | System = RXF 393 renal | TGI = ____
Outgoing: 34.6

Incoming: # returns recorded TGI (system: RXF 393 renal) for Cn1c2c(c3ccccc31)CCN(CCCN1CCN(c3ccccc3)CC1)C2=O
Outgoing: 32.6

Incoming: Recorded TGI for CCOC(=O)[C@@]12NN=N[C@@H]1[C@H]1CO[C@H](c3ccccc3)N1C2=O with RXF 393 renal, please?
Outgoing: 13.9

----------
- Tested on: CAKI-1 renal
- Assay Summary: NCI tumour cell line growth inhibition, 48 h; in the data active means GI50 below about 0.43 µM; inactive means the rest
# valid calls are active, inactive; nothing else

Incoming: // outcome(item) with item = O=C(Nc1nc(-c2ccccc2Cl)cs1)c1cc(-c2ccc(Cl)cc2)nc2ccc(Cl)cc12
Outgoing: inactive

Incoming: Each compound tested received a call. Report the one for Cn1c(=O)c(-c2c(Cl)cccc2Cl)cc2cnc(Nc3ccc(I)cc3)nc21 .
Outgoing: active

Incoming: Outcome logged for Clc1ccc(Nc2ncnc3c2sc2ncccc23)c(Cl)c1 in this assay:
Outgoing: active

Incoming: Dear all, I need the recorded test outcome for CCN(CC)CCNC(=O)C(Cl)=C1C(Cl)=C(Cl)C(Cl)=C1Cl , thank you.
Outgoing: inactive

Incoming: # fetch the recorded call for COc1ccc(/C=C/C(=O)c2ccccc2)cc1OC here
Outgoing: inactive

Incoming: So what was the verdict on Nc1nc(N)c2nc(CNc3ccc(C(=O)NC(CCNC(=O)c4ccccc4C(=O)O)C(=O)O)cc3)cnc2n1 (configuration not stated) in this test?
Outgoing: active

Incoming: Identify the outcome logged in this assay for the compound shown: COc1cccc(/C=C2\CCc3ccccc3C2=O)c1
Outgoing: inactive

----------
For each record, write down the corresponding TGI.
- Tested on: NCI-H460 lung
- Assay Summary: NCI tumour cell line growth inhibition, 48 h
Field format: number, assumed µM, no unit text.

Incoming: Value lookup for TGI; key = CCCCCCn1c2c(c3c(O)cccc31)C(=O)c1ccccc1-2
Outgoing: 35.8

Incoming: Recorded TGI for O=C(c1cccnc1)N1N=C(c2ccc3c(c2)OCO3)CC1(O)c1cc(F)c(Cl)cc1Cl (stereo unspecified) , please?
Outgoing: 36.9

Incoming: Fill in: TGI of COc1cccc(/C=C2\CCc3ccccc3C2=O)c1 is ___
Outgoing: 35

Incoming: Any idea what its TGI is? The compound is CN(C)CCNC(=O)c1cccc2[nH]c(-c3ccc(Cl)cc3)nc12
Outgoing: 13.2

Incoming: Which TGI is listed for Cc1ccnc(NC(c2ccccc2)c2ccc3cccnc3c2O)c1 (stereo unspecified) ?
Outgoing: 6.34

Source of measurements: PubChem BioAssay (NCI)
